# experimental_system: T1, human CD33 (human, UniProt P20138 18-259, limits assumed)
# T1 construct: Human CD33 immobilized on the BLI sensor tip or the BIAcore C1 chip; also called Siglec-3
# T1 sequence (P20138 18-259 limits assumed): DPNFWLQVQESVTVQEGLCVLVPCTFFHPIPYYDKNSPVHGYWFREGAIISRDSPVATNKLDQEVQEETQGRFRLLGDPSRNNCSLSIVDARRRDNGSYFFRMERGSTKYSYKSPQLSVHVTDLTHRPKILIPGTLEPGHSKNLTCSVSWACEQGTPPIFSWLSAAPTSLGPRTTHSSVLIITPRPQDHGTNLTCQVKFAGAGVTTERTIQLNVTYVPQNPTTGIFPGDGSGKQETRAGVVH
# procedure_text: BLI (ForteBio), Fab 100 nM on immobilized CD33
# Method: The affinities (KD) of the humanized antibodies for human CD33 were measured for each antibody by BioLayer Interferometry in a ForteBio assay according to standard techniques (Estep et al. (2013) MAbs 5(2): 270-8). […] The assay was carried out at room temperature. The affinities of AB-H14 and its affinity-matured variants (Table 15) and AB-H63 and its affinity-matured variants (Table 16), for human CD33 were measured by Fortebio assay according to the method described in Example 1 above.
property_name: Kd (nM)
Just the number in nM, nothing appended.

# annotated cases, reported Kd shown
binder | Kd (nM)
AB-14.6 (antibody, V domains shown) VH: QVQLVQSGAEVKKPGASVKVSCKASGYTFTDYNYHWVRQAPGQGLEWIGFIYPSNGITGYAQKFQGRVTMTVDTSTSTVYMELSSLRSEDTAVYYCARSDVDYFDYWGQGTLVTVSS VL: DIQMTQSPSSLSASVGDRVTITCRASQSVGTSTYSYMHWYQQKPGKAPKLLIKYASALESGVPSRFSGSGSGTDFTLTISSLQPEDFATYYCQHSWEIPLTFGQGTKLEIK | 0.295
AB-14.11 (antibody, V domains shown) VH: QVQLVQSGAEVKKPGASVKVSCKASGYTFTDYNYHWVRQAPGQGLEWIGFIYPSNGITGYAQKFQGRVTMTVDTSTSTVYMELSSLRSEDTAVYYCARSSVDYFDYWGQGTLVTVSS VL: DIQMTQSPSSLSASVGDRVTITCRASQDVSTSTYSYMHWYQQKPGKAPKLLIKYVSNLESGVPSRFSGSGSGTDFTLTISSLQPEDFATYYCQHSWEIPLTFGQGTKLEIK | 0.205

*Q* Give the measured Kd of AB-63.12 (antibody, V domains shown) VH: QVQLVQSGAEVKKPGASVKVSCKASGYTFTDYNFHWVRQAPGQGLEWIGFIYPSNGITGYAQKFTGRVTMTVDTSTSTVYMELSSLRSEDTAVYYCARSTVDYFDDWGQGTLVTVSS VL: DIVLTQSPDSLAVSLGERATINCRASQDVSTSTYSYMHWYQQKPGQPPKLLIKYASNVESGVPDRFSGSGSGTDFTLTISSLQAEDVAVYYCQHSWAIPLTFGQGTKLEIK .
*A* 0.277

*Q* Please answer likewise for AB-63.8 (antibody, V domains shown) VH: QVQLVQSGAEVKKPGSSVKVSCKASGVTFTDYNYHWVRQAPGQGLEWIGFIYPSNGITGYAQKFQDRVTMTVDTSTSTVYMELSSLRSEDTAVYYCARSTVDYFDYWGQGTLVTVSS VL: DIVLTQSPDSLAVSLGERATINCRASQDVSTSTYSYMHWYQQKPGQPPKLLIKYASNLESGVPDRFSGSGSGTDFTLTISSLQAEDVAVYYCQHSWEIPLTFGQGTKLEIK
*A* 0.219

*Q* Please answer likewise for AB-63.14 (antibody, V domains shown) VH: QVQLVQSGAEVKKPGSSVKVSCKASGYTFTDYNLHWVRQAPGQGLEWIGFIYPSNGITGYAQKFQGRVTMTVDTSTSTVYMELSSLRSEDTAVYYCARSDVDYFDYWGQGTLVTVSS VL: DIVLTQSPDSLAVSLGERATIDCKASQDVSTSTYSYMHWYQQKPGQPPKLLIKYASNLESGVPDRFSGSGSGTDFTLTISSLQAEDVAVYYCQHSWEIPLTFGQGTKLEIK
*A* 0.244

*Q* Please answer likewise for AB-63.13 (antibody, V domains shown) VH: QVQLVQSGAEVKKPGASVKVSCKASGYTFTDYNLHWVRQAPGQGLEWIGFIYPSNGIRGYAQKFQGRVTMTVDTSTSTVYMELSSLRSEDTAVYYCARSDVDYFDYWGQGTLVTVSS VL: DIVLTQSPDSLAVSLGERATINCRASQSVSTSTYSYMHWYQQKPGQPPKLLIKYASNLESGVPDRFSGSGSGTDFTLTISSLQAEDVAVYYCQHSEEIPLTFGQGTKLEIK
*A* 0.225

*Q* Please answer likewise for AB-63.4 (antibody, V domains shown) VH: QVQLVQSGAEVKKPGASVKVSCKASGYTFTDYNYHWVRQAPGQGLEWIGFIYPSNGITGYAQKFQGRVTMTVDTSTSTVYMELSSLRSEDTAVYYCARSTVDYFDYWGQGTLVTVSS VL: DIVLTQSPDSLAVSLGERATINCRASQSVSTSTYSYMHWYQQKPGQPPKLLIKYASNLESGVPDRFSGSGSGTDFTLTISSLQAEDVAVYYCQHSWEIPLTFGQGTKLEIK
*A* 0.718

*Q* Please answer likewise for AB-63.10 (antibody, V domains shown) VH: QVQLVQSGAEVKKPGASVKVSCKASGYTETDYNLHWVRQAPGQGLEWIGFIYPSNGITGYAQKFQGRVTMTVDTSTSTVYMELSSLRSEDTAVYYCARSDVDYFDYWGQGTLVTVSS VL: DIVLTQSPDSLAVSLGERATINCRASQDVSTSTYSYMHWYQQKPGQPPKLLIKYASNLESGVPDRFSGSGSGTDFTLTISSLQAEDVAVYYCQHSWELPLTFGQGTKLEIK
*A* 0.466

*Q* Please answer likewise for AB-63.15 (antibody, V domains shown) VH: QVQLVQSGAEVKKPGASVKVSCKASGYTFTDYNYHWVRQAPGQGLEWIGFIYPSNGITGYAQKFQGRVTMTVDTSTSTVYMELSSLRSEDTAVYYCARSDVDYFDLWGQGTLVTVSS VL: DIVLTQSPDSLAVSLGERATINCRASQDVSTSTYSYMHWYQQKPGQPPKLLIKYASNVESGVPDRFSGSGSGTDFTLTISSLQAEDVAVYYCQHSWEIPLTFGQGTKLEIE
*A* 0.225

*Q* Please answer likewise for AB-14.3 (antibody, V domains shown) VH: QVQLVQSGAEVKKPGASVKVSCKASGYTFTDYNYHWVRQAPGQGLEWIGFIYPSNGITGSAQKFQGRVTMTVDTSTSTVYMELSSLRSEDTAVYYCARSDVDYFDYWGQGTLVTVSS VL: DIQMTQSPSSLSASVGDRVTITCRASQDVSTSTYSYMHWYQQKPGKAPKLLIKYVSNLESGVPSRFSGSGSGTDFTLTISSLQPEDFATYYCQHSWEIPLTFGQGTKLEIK
*A* 0.236

These entries and their values trace back to patent US20210139581A1.
